Data origin, for the record: ChEMBL document CHEMBL4417631

Attribute: pIC50
# assayed_target: UniProtKB Q5VWK5
# Sequence (Q5VWK5 whole entry): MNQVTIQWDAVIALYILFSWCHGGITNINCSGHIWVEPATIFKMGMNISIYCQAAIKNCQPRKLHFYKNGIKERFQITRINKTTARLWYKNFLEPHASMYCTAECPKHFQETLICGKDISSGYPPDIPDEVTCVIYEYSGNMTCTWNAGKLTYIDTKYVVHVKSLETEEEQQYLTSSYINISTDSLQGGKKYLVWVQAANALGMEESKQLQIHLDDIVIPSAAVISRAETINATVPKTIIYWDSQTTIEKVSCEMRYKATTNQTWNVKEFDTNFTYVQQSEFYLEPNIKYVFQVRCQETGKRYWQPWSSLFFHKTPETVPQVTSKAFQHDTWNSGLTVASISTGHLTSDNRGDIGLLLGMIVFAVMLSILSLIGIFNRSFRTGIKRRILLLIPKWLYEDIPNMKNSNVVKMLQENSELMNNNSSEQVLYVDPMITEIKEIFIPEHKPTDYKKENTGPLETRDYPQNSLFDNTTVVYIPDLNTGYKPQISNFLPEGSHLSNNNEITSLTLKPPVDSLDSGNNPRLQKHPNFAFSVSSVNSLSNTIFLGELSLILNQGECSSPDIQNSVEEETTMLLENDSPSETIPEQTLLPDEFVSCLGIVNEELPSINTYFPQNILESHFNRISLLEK
# assay_comment: Inhibition of interleukin-23 binding to human interleukin-23 receptor incubated for 2 hrs by competitive binding ELISA
pIC50: −log10 of the molar value.

Example entries and their recorded answers appear below.
CC(=O)NCCCC[C@H](NC(=O)[C@](C)(CCCCNC(C)=O)NC(=O)[C@H](Cc1ccc2ccccc2c1)NC(=O)[C@H](Cc1ccc(OCCNC(C)=O)cc1)NC(=O)[C@@H](NC(=O)[C@H](CCC(N)=O)NC(=O)[C@H](Cc1c[nH]c2ccccc12)NC(=O)[C@@H](NC(=O)[C@H](CCC(N)=O)NC(=O)[C@@H](NC(C)=O)C(C)(C)S)[C@@H](C)O)C(C)(C)S)C(=O)N[C@@H](CC(N)=O)C(=O)N[C@@H](CC(N)=O)C(N)=O ... > 8.00
CC(=O)N[C@@H](CS)C(=O)N[C@@H](CCC(N)=O)C(=O)N[C@H](C(=O)N[C@@H](Cc1c[nH]c2ccccc12)C(=O)N[C@@H](CCC(N)=O)C(=O)N[C@@H](CS)C(=O)N[C@@H](CC1CCCCC1)C(=O)N[C@@H](Cc1c[nH]c2ccccc12)C(=O)N[C@@H](CCC(C)C)C(=O)N[C@@H](CCC(=O)O)C(=O)N[C@@H](CC(N)=O)C(=O)NCC(N)=O)[C@@H](C)O ... 5.22

Please list pIC50 recorded for the compound COc1ccc(C[C@H](NC(=O)[C@@H](NC(=O)[C@H](CCC(N)=O)NC(=O)[C@H](Cc2c[nH]c3ccccc23)NC(=O)[C@@H](NC(=O)[C@H](CCC(N)=O)NC(=O)[C@@H](NC(=O)Cc2ccc(-c3ccccc3)cc2)C(C)(C)S)[C@@H](C)O)C(C)(C)S)C(=O)N[C@@H](Cc2ccc3ccccc3c2)C(=O)N[C@@](C)(CCCCN)C(=O)N[C@@H](CCCCNC(C)=O)C(=O)N[C@@H](CC(N)=O)C(=O)NCC(N)=O)cc1 6.00 to 7.00

Entry CC(=O)N[C@H]1CCSC[C@@H](C(=O)N[C@@H](Cc2ccc(OCCN)cc2)C(=O)N[C@@H](Cc2c[nH]c3ccccc23)C(=O)N[C@@](C)(CC(C)C)C(=O)N[C@@H](CCC(=O)O)C(=O)N[C@@H](CC(N)=O)C(=O)NCC(N)=O)NC(=O)[C@H](CCC(N)=O)NC(=O)[C@H](Cc2c[nH]c3ccccc23)NC(=O)[C@H]([C@@H](C)O)NC(=O)[C@H](CCC(N)=O)NC1=O needs its pIC50 filled in; supply it. > 8.00

Note down pIC50 recorded for CC(=O)N[C@@H](CS)C(=O)N[C@@H](CCCCN)C(=O)N[C@@H](CC(=O)O)C(=O)N[C@@H](Cc1c[nH]c2ccccc12)C(=O)N[C@H](C(=O)N[C@@H](CS)C(=O)N[C@@H](Cc1ccc(O)cc1)C(=O)N[C@@H](Cc1c[nH]c2ccccc12)C(=O)N[C@@H](Cc1cnc[nH]1)C(=O)N[C@H](C(=O)N[C@@H](Cc1ccccc1)C(=O)NCC(=O)O)[C@@H](C)O)C(C)C < 6.00
